Catalogue of Plant response rating, Ragweed values
# Tested on: ragweed (common ragweed, Ambrosia artemisiifolia)
# experiment: Test A postemergence, ragweed
# Format: in vivo
# condition.context: Postemergence, 500 g ai/ha; visual injury approx. 10 days; 0 to 100 scale (0 no effect, 100 complete control)
Give the figure only, with no unit attached.

Use the examples below as a reference point.
cpd.smiles	Plant response rating, Ragweed
COC(=O)N(c1cc(N2CCC3(CCCCC3)C2=O)c(C)cc1C)S(=O)(=O)C(F)(F)F	10
Cc1cc(C)c(N2CC3(CCCCC3)OC2=O)cc1NS(=O)(=O)C(F)(F)F	90
Cc1cc(C)c(N2CCC3(CCCC3)C2=O)cc1NS(=O)(=O)C(F)(F)F	60

Report Plant response rating, Ragweed for `Cc1cc(Cl)c(C(=O)N2CCCCC2)cc1NS(=O)(=O)C(F)(F)F` tested on ragweed (common ragweed, Ambrosia artemisiifolia).
90
